B1: Zinc finger homeobox protein 3, residues 2643 to 2698; numbered along this chain, Q15911 (parent)
chain: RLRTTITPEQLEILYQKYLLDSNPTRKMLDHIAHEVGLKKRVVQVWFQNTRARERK

Variants of: B1
Test: abundance fitness (aPCA) (normalised: wild type 0, dead -1); higher = more abundant; growth selection in yeast, the domain comes from the species named
Conditions: Homo sapiens
Below is a list of entries, each paired with its recorded abundance fitness value.
Form rule: numeric answer, no unit written next to it.

Answered examples (5):
Per the records, this variant ( "W46E" ) has abundance fitness equal to -1.08

Per the records, this variant ( "T5E" ) has abundance fitness equal to 0.445

Per the records, this variant ( "L11G" ) has abundance fitness equal to -0.02

Per the records, this variant ( "L11S" ) has abundance fitness equal to 0.022

Per the records, this variant ( "R51L" ) has abundance fitness equal to 0.056

New cases:
Per the records, this variant ( "N23A" ) has abundance fitness equal to -0.23

Per the records, this variant ( "T5M" ) has abundance fitness equal to 0.286

Per the records, this variant ( "T4L" ) has abundance fitness equal to -0.335

Per the records, this variant ( "V45N" ) has abundance fitness equal to -0.489

Per the records, this variant ( "R26N" ) has abundance fitness equal to 0.339

Per the records, this variant ( "L38I" ) has abundance fitness equal to -0.786
